System: LXRa homodimer (NR concentration 270 nM)
assay info: PBM binding z-score (relative to random genomic background probes); higher = stronger binding; sequences stand for … in GC…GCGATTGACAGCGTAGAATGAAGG
This section presents sequences with their documented PBM binding z-score values.
endpoint: PBM binding z-score

INSERT INTO measurements (residue_sequence, measured_result) VALUES
  ('TTACCAAGGTGAAAGGTCGTTCATGCACGCCTTG', 0.593),
  ('CCTTACGGGTCACCCCAGGTTATAGCATCGGAGT', 1.25),
  ('ATGTCTAGGTAACAAGTTCAGTGAAAGAGAGGAC', 0.395),
  ('CCGACTGGGCCAAAGGTCATTGATTCCAATGCTC', 3.7),
  ('TCTTGTAGATCAACAGGCGGTTAAGAAAGATCGA', -0.388),
  ('GCTCGGAGGACGAGGTCAGAGCTTTGTCCGTAGA', -0.0578);
